Assign shrunken log2 fold change to each entry below.
- System: Escherichia coli TOP10
- assay text: shrunken log2 fold change of peptide-encoding DNA abundance (4.5 h post-induction vs induction); higher = less antimicrobial activity (less host growth inhibition)
- measurement context: time post-induction: 4.5 h; library: site-saturation at positions 5, 18, 19, 20
Answers are plain numbers.

Worked set:
In [3]: df
Out[3]:
                  residues  measured_result
0  RRIRRRPPRLPRPRPRPHHVPRP            0.296
1  RRIRFRPPRLPRPRPRPTTQPRP            0.376
2  RRIRIRPPRLPRPRPRPVYWPRP           -0.208
3  RRIRCRPPRLPRPRPRPSEKPRP           -0.188
4  RRIRLRPPRLPRPRPRPDHSPRP          -0.0489

Fill in shrunken log2 fold change for each of the 7 sequences listed.
1. RRIRSRPPRLPRPRPRPELKPRP
2. RRIRYRPPRLPRPRPRPRITPRP
3. RRIRLRPPRLPRPRPRPHVKPRP
4. RRIRFRPPRLPRPRPRPQEFPRP
5. RRIRDRPPRLPRPRPRPAKAPRP
6. RRIRARPPRLPRPRPRPRPYPRP
7. RRIRYRPPRLPRPRPRPFKNPRP

OUT:
-0.0512
-0.382
-0.333
0.0412
0.0972
0.375
-0.426

Batch request: shrunken log2 fold change per item, same order as input.
1. RRIRCRPPRLPRPRPRPSSDPRP
2. RRIRKRPPRLPRPRPRPHIPPRP
3. RRIRERPPRLPRPRPRPVEAPRP
4. RRIRGRPPRLPRPRPRPYEHPRP
5. RRIRVRPPRLPRPRPRPKYNPRP
6. RRIRPRPPRLPRPRPRPVKIPRP
7. RRIRWRPPRLPRPRPRPNNGPRP

OUT:
[-0.162, -0.247, 0.21, 0.256, -0.658, 0.154, -0.165]

* * *

- Test system: Escherichia coli TOP10
- assay text: shrunken log2 fold change of peptide-encoding DNA abundance (4.5 h post-induction vs induction); higher = less antimicrobial activity (less host growth inhibition)
- measurement context: time post-induction: 4.5 h; library: site-saturation at positions 5, 18, 19, 20
# class assignment by measured shrunken log2 fold change: class 0: < -0.1; class 1: ≥ -0.1 and < 0.2; class 2: ≥ 0.2

For orientation, consider the following solved cases.
>>> print(df.to_string())
                  residues  assigned_class
0  RRIRFRPPRLPRPRPRPAPWPRP         class 2
1  RRIRTRPPRLPRPRPRPFLQPRP         class 1
2  RRIRRRPPRLPRPRPRPYNTPRP         class 0
3  RRIRTRPPRLPRPRPRPYSDPRP         class 0
4  RRIRNRPPRLPRPRPRPEYHPRP         class 1

Consider now this further sequence.
IN: Class? Entry: RRIRNRPPRLPRPRPRPGGQPRP
OUT: class 1

* * *

- Test system: Escherichia coli TOP10
- assay text: shrunken log2 fold change of peptide-encoding DNA abundance (4.5 h post-induction vs induction); higher = less antimicrobial activity (less host growth inhibition)
- measurement context: time post-induction: 4.5 h; library: site-saturation at positions 5, 18, 19, 20
Outcome: label 1 for shrunken log2 fold change of at least -0.2; label 0 for anything lower.

Solved cases (5 shown):
                  residues                     tgt  assigned_class
0  RRIRNRPPRLPRPRPRPFSLPRP  Escherichia coli TOP10         label 1
1  RRIRLRPPRLPRPRPRPSCIPRP  Escherichia coli TOP10         label 0
2  RRIRWRPPRLPRPRPRPQNLPRP  Escherichia coli TOP10         label 1
3  RRIRIRPPRLPRPRPRPGFAPRP  Escherichia coli TOP10         label 1
4  RRIRVRPPRLPRPRPRPLTHPRP  Escherichia coli TOP10         label 0

IN: In plain terms: is recorded shrunken log2 fold change at least -0.2 for RRIRPRPPRLPRPRPRPQHNPRP ?
OUT: label 0

IN: Quick check: does RRIRKRPPRLPRPRPRPWVSPRP have shrunken log2 fold change greater than or equal to -0.2?
OUT: label 1

* * *

- System: Escherichia coli TOP10
- assay text: shrunken log2 fold change of peptide-encoding DNA abundance (4.5 h post-induction vs induction); higher = less antimicrobial activity (less host growth inhibition)
- measurement context: time post-induction: 4.5 h; library: site-saturation at positions 5, 18, 19, 20
Exercise: for every item that follows, state its recorded shrunken log2 fold change.

Sample answers from the record:
>>> df
                  residues                     tgt  measured_result
0  RRIRQRPPRLPRPRPRPLDCPRP  Escherichia coli TOP10           -0.221
1  RRIRSRPPRLPRPRPRPTFVPRP  Escherichia coli TOP10            -0.15
2  RRIRRRPPRLPRPRPRPPAKPRP  Escherichia coli TOP10             1.35

I'm hoping you can list shrunken log2 fold change for every sequence here, please.
1. RRIRHRPPRLPRPRPRPTINPRP
2. RRIRCRPPRLPRPRPRPPESPRP
3. RRIRTRPPRLPRPRPRPYFRPRP
4. RRIRNRPPRLPRPRPRPVPIPRP
5. RRIRHRPPRLPRPRPRPTCQPRP
6. RRIRRRPPRLPRPRPRPFQYPRP

OUT:
1. -0.459
2. 0.347
3. -0.138
4. -0.0984
5. -0.044
6. -0.0414

* * *

- System: Escherichia coli TOP10
- assay text: shrunken log2 fold change of peptide-encoding DNA abundance (4.5 h post-induction vs induction); higher = less antimicrobial activity (less host growth inhibition)
- measurement context: time post-induction: 4.5 h; library: site-saturation at positions 5, 18, 19, 20
assay readout: shrunken log2 fold change

Take a look at these entries with their results.
>>> print(df.to_string())
                  residues              assay_readout  measured_result
0  RRIRKRPPRLPRPRPRPKRGPRP  shrunken log2 fold change            0.781
1  RRIRGRPPRLPRPRPRPEASPRP  shrunken log2 fold change            0.708
2  RRIRNRPPRLPRPRPRPQVGPRP  shrunken log2 fold change          0.00312
3  RRIRARPPRLPRPRPRPWDMPRP  shrunken log2 fold change            0.187
4  RRIRMRPPRLPRPRPRPPCAPRP  shrunken log2 fold change             2.14
5  RRIRERPPRLPRPRPRPVTRPRP  shrunken log2 fold change          -0.0559

Field: shrunken log2 fold change. Fill in for each record below.
1. RRIRGRPPRLPRPRPRPNTQPRP
2. RRIRLRPPRLPRPRPRPRAMPRP
3. RRIRCRPPRLPRPRPRPMCWPRP
4. RRIRYRPPRLPRPRPRPSPSPRP
5. RRIRQRPPRLPRPRPRPDHHPRP
6. RRIRMRPPRLPRPRPRPEQYPRP
7. RRIRTRPPRLPRPRPRPGSIPRP
8. RRIRDRPPRLPRPRPRPVIYPRP

OUT:
0.224
0.373
0.0297
-0.269
-0.308
0.282
-0.025
0.011

IN: What value of shrunken log2 fold change has been reported for the following sequence? RRIRERPPRLPRPRPRPDRPPRP
OUT: -0.165

* * *

- System: Escherichia coli TOP10;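 also: peptides expressed intracellularly from a pBAD plasmid library in pooled LB shake-flask culture, induced with 0.3% L-arabinose, DNA abundance read by NGS, three biological replicates, DESeq2 with apeglm shrinkage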
- assay text: shrunken log2 fold change of peptide-encoding DNA abundance (4.5 h post-induction vs induction); higher = less antimicrobial activity (less host growth inhibition)
- measurement context: time post-induction: 4.5 h; library: site-saturation at positions 5, 18, 19, 20
Can you tell me shrunken log2 fold change for the items I'm about to list?

Below: 3 sequences and their reported shrunken log2 fold change.
In [3]: df
Out[3]:
                  residues                     tgt  measured_result
0  RRIRRRPPRLPRPRPRPGMGPRP  Escherichia coli TOP10            0.581
1  RRIRSRPPRLPRPRPRPQVRPRP  Escherichia coli TOP10           0.0563
2  RRIRIRPPRLPRPRPRPGCTPRP  Escherichia coli TOP10           -0.268

// for each sequence in input: emit shrunken log2 fold change
1. RRIRPRPPRLPRPRPRPFTWPRP
2. RRIRFRPPRLPRPRPRPFKFPRP

OUT:
1: -0.236; 2: -0.107

Would you mind listing shrunken log2 fold change for each of the following sequences?
1. RRIRCRPPRLPRPRPRPQWEPRP
2. RRIRERPPRLPRPRPRPSQRPRP
3. RRIRMRPPRLPRPRPRPNRHPRP
4. RRIRDRPPRLPRPRPRPIYSPRP
5. RRIRWRPPRLPRPRPRPTKQPRP

OUT:
0.0667
-0.0321
0.0213
-0.15
0.0132

Quick one: give me shrunken log2 fold change for each item below, same order please.
1. RRIRPRPPRLPRPRPRPPTKPRP
2. RRIRCRPPRLPRPRPRPTYRPRP

OUT:
0.268
0.0231

Count: 4. Required value per item: shrunken log2 fold change.
1. RRIRFRPPRLPRPRPRPMQRPRP
2. RRIRLRPPRLPRPRPRPNHTPRP
3. RRIRFRPPRLPRPRPRPPFRPRP
4. RRIRKRPPRLPRPRPRPRKSPRP

OUT:
0.226
-0.33
1.84
0.727
